All values here come from paper PMC2566858.

assay-target: T1, rGyr_fl Y851F (full-length reverse gyrase) (Thermotoga maritima, UniProt O51934 1-1104, Y851F)
T1 sequence: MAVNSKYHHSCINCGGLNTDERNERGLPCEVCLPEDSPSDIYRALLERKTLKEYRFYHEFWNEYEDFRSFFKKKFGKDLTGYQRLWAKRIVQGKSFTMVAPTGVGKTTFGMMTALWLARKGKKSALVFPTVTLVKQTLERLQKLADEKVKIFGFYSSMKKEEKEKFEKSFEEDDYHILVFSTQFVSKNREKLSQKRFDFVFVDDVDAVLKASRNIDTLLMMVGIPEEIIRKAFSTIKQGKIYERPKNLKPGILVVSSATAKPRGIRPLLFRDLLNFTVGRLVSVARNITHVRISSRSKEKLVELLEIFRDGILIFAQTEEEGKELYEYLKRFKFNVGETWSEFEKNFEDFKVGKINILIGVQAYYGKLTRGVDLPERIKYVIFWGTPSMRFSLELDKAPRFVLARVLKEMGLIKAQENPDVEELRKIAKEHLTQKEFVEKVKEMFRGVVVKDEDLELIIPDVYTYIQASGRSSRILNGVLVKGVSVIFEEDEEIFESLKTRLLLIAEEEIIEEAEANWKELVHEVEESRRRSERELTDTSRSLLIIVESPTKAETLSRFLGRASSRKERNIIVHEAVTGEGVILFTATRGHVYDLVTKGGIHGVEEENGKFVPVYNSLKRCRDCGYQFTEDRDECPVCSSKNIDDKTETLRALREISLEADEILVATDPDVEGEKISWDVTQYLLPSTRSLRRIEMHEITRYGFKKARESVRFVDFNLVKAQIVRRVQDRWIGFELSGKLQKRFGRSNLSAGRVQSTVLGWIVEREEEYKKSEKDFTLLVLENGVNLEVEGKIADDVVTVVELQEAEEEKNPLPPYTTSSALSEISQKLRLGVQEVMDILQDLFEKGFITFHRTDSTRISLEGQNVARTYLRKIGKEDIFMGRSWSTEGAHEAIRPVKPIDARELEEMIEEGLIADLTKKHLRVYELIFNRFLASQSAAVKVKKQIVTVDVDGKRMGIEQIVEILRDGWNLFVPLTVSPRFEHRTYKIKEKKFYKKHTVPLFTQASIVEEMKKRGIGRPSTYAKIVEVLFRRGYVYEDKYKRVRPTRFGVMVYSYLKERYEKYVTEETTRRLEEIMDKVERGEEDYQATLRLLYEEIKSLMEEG
procedure-text: fluorescence anisotropy
I'd appreciate it if you could supply pKd values for the items below.
Answers are plain numbers, as −log10 of the molar value.

- binder: "60 bp dsDNA (dsDNA) DNA 1: AAGCCAAGCTTCTAGAGTCAGCCCGTGATATTCATTACTTCTTATCCTAGGATCCCCGTT DNA 2: AACGGGGATCCTAGGATAAGAAGTAATGAATATCACGGGCTGACTCTAGAAGCTTGGCTT"
  pKd: 6.31

// query Returns the measured pKd for the input binder. Input: 60-base ssDNA (ssDNA) DNA: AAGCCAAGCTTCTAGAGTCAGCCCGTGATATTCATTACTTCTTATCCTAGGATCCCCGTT
// result 7.46
